# targetDesc: EP2 (Homo sapiens)
# experimentDescription: EP2 binding (Ki)
measurementType: Ki
Reply with the number and its unit after it.

Field request: Ki | item: CCCCCC(O)c1ccc(N2C(=O)NC(=O)C2CCCc2ccc(C(=O)O)s2)cc1 (stereo not shown) 5 nM

* * *

# targetDesc: hDP (Homo sapiens, UniProt Q13258)
# Sequence (Q13258 whole entry): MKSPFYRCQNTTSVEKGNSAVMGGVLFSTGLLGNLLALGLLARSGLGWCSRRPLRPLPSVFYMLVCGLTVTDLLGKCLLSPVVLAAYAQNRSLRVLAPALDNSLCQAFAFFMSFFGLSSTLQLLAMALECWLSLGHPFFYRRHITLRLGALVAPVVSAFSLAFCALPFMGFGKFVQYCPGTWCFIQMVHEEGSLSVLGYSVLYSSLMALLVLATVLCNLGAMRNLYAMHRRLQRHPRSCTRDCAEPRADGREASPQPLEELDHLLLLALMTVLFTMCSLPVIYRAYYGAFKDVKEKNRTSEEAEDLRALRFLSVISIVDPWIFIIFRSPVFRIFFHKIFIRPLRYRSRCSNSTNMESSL
# experimentDescription: Other Receptors, hDP
# Assay type: cell-based
measurementType: EC50 (nM)
Hi! Could you send only the number? It should be in nM, unit omitted.

Field request: EC50 | item: CCCCCC(O)c1ccc(N2C(=O)NC(=O)C2CCCc2ccc(C(=O)O)s2)cc1 (stereo not shown) 17400

* * *

# targetDesc: EP2 (Homo sapiens, UniProt P43116)
# Sequence (P43116 whole entry): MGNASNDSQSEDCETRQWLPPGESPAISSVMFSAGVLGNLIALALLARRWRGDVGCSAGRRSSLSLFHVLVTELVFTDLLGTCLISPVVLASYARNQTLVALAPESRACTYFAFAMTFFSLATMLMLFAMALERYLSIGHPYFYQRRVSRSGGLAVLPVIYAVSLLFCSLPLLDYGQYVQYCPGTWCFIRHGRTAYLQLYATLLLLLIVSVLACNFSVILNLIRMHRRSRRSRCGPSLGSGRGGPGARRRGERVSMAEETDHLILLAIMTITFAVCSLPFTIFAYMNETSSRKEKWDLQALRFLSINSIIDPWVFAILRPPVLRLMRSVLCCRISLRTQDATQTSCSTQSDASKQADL
# experimentDescription: EP2 cAMP
# Format: cell-based
measurementType: EC50 (nM)
Hi! Could you send only the number? It should be in nM, unit omitted.

compound | EC50, nM
CCCCCC(=O)c1ccc(N2C(=O)NC(=O)C2CCCc2ccc(C(=O)O)s2)cc1 (centres unmarked) | 0.2

Consider the record given below.
Field request: EC50 | item: CCCCCC(O)c1ccc(N2C(=O)NC(=O)C2CCCc2ccc(C(=O)O)s2)cc1 (centres unmarked) 0.1

* * *

# targetDesc: EP2 (Homo sapiens)
# experimentDescription: EP2 flipr
# Type: cell-based
measurementType: pEC50
Friendly reminder that pEC50 comes from taking -log10 of the concentration in mol/L.

Query for EP2 (Homo sapiens): what pEC50 does the record show for CCCCCC(O)c1ccc(N2C(=O)NC(=O)C2CCCc2ccc(C(=O)O)s2)cc1 (stereo not shown) ? 8.46
